Reference for the values: patent US20140051696A1

experiment.description: Plasma pharmacokinetics in healthy human subjects, alone or in combination
condition: human, in vivo, 200 mg, AUCtau, Mean (% CV), Compound B analyte; Compound B 200 mg BID alone, fed (N = 8)

{"columns": ["compound.smiles", "unit.symbol", "AUC"],
 "data": [
  ["c1cn2cc(-c3ccc4cn[nH]c4c3)nc(Nc3ccc(N4CCOCC4)cc3)c2n1", "ng·h/mL", 4150]
]}

====

experiment.description: Plasma pharmacokinetics in healthy human subjects, alone or in combination
condition: human, plasma, oral, 100 mg, Cmax, Mean (% CV), Compound A analyte; Compound A 100 mg BID alone, fed (N = 16)
measure.name: Cmax

{"columns": ["compound.smiles", "experimental.value"],
 "data": [
  ["CC[C@H](Nc1ncnc2[nH]cnc12)c1nc2cccc(F)c2c(=O)n1-c1ccccc1", "1660 ng/mL"]
]}

====

experiment.description: Plasma pharmacokinetics in healthy human subjects, alone or in combination
condition: human, in vivo, AUCtau, Mean (% CV), Compound B analyte; Compound B 600 mg + Compound A 100/150 mg BID, fed (N = 14)
measure.name: AUC (ng·h/mL)

{"columns": ["compound.smiles", "experimental.value"],
 "data": [
  ["c1cn2cc(-c3ccc4cn[nH]c4c3)nc(Nc3ccc(N4CCOCC4)cc3)c2n1", 16000]
]}

====

experiment.description: Plasma pharmacokinetics in healthy human subjects, alone or in combination
condition: human, in vivo, 600 mg, Cmax, Mean (% CV), Compound B analyte; Compound B 600 mg BID alone, fed (N = 16)
Experimental: On Day 1, PK samples were collected at pre-dose, 2, 4, 8, and 12 hours post dose. On Day 4, samples were collected relative to the AM dose of study drug(s) at the following time points: pre-dose, 1, 2, 2.5, 3, 4, 6, 8, 10, 12, 18, 24, 36, and 48 hours post dose. Trough PK samples were collected on Day 3 prior to dosing.
measure.name: Cmax

{"columns": ["compound.smiles", "measure.name", "experimental.value"],
 "data": [
  ["c1cn2cc(-c3ccc4cn[nH]c4c3)nc(Nc3ccc(N4CCOCC4)cc3)c2n1", "Cmax", "1570 ng/mL"]
]}

====

experiment.description: Plasma pharmacokinetics in healthy human subjects, alone or in combination
condition: human, plasma, oral, 150 mg, Cmax, Mean (% CV), Compound A analyte; Compound A 150 mg BID alone, fed (N = 7)
measure.name: Cmax (ng/mL)

{"columns": ["compound", "measure.name", "experimental.value"],
 "data": [
  ["CC[C@H](Nc1ncnc2[nH]cnc12)c1nc2cccc(F)c2c(=O)n1-c1ccccc1 [Compound A]", "Cmax", 2680]
]}

====

experiment.description: Plasma pharmacokinetics in healthy human subjects, alone or in combination
condition: human, in vivo, 600 mg, AUCtau, Mean (% CV), Compound B analyte; Compound B 600 mg BID alone, fed (N = 16)
Description: On Day 1, PK samples were collected at pre-dose, 2, 4, 8, and 12 hours post dose. On Day 4, samples were collected relative to the AM dose of study drug(s) at the following time points: pre-dose, 1, 2, 2.5, 3, 4, 6, 8, 10, 12, 18, 24, 36, and 48 hours post dose. Trough PK samples were collected on Day 3 prior to dosing.
measure.name: AUC (ng·h/mL)

{"columns": ["compound.smiles", "experimental.value"],
 "data": [
  ["c1cn2cc(-c3ccc4cn[nH]c4c3)nc(Nc3ccc(N4CCOCC4)cc3)c2n1", 12700]
]}
